PROPERTY_MEASURED: melting point

compound="O=C(C=Cc1cccnc1)NCCCCC1CCN(C2c3ccccc3CSc3ccccc32)CC1 (stereo not shown)" property_measured="melting point" val="89 to 91 °C"
compound=O=C(C=Cc1cccnc1)NCCCCC1CCN(C(=O)Nc2cccc3ccccc23)CC1 property_measured="melting point" val="198 to 200 °C"
compound=O=C(C=Cc1cccnc1)NCCCCC1CCN(C(=O)C(c2ccccc2)c2ccccc2)CC1 property_measured="melting point" val="161 °C"
compound=O=C(C=Cc1cccnc1)NCCCCC1CCN(S(=O)(=O)c2ccc3ccccc3c2)CC1 property_measured="melting point" val="85 to 87 °C"
